Source of measurements: patent US12202805B2

Experiment: E-2.3 inhalative, oral and intravenous single doses in healthy male subjects: plasma concentrations and lung deposition
Type: in vivo, human
Conditions: male, human, plasma, inhaled, 1000 μg, healthy male subjects, single 1000 μg inhale + Charcoal Block, N = 16; 15 h after dose; read-out: Geometric mean of plasma concentrations
Quantity name: concentration at 15 h (ng/mL)
Answer format: numeric, ng/mL implied, no suffix.

concentration at 15 h for `O=C(O)c1ccc(CCN(CCc2ccccc2OCc2ccc(-c3ccc(C(F)(F)F)cc3)cc2Cl)[C@H]2CCCc3nc(C(=O)O)ccc32)cc1` is 0.157

* * *

Assay: E-2.3 inhalative, oral and intravenous single doses in healthy male subjects: plasma concentrations and lung deposition
Format: in vivo, human
Settings: male, human, plasma, po, 1000 μg, healthy male subjects, single 1000 μg oral, N = 16; 4 h after dose; read-out: Geometric mean of plasma concentrations
Quantity name: concentration at 4 h (ng/mL)
Answer format: numeric, ng/mL implied, no suffix.

concentration at 4 h for O=C(O)c1ccc(CCN(CCc2ccccc2OCc2ccc(-c3ccc(C(F)(F)F)cc3)cc2Cl)[C@H]2CCCc3nc(C(=O)O)ccc32)cc1 [example 4] is 1.01

* * *

Assay: E-2.3 inhalative, oral and intravenous single doses in healthy male subjects: plasma concentrations and lung deposition
Assay type: in vivo, human
Conditions: male, human, plasma, inhaled, 1000 μg, healthy male subjects, single 1000 μg inhale, N = 16; 0.25 h after dose; read-out: Geometric mean of plasma concentrations
Quantity name: concentration at 0.25 h
Include the unit right after the number.

concentration at 0.25 h for `O=C(O)c1ccc(CCN(CCc2ccccc2OCc2ccc(-c3ccc(C(F)(F)F)cc3)cc2Cl)[C@H]2CCCc3nc(C(=O)O)ccc32)cc1` is 0.0628 ng/mL

* * *

Assay: E-2.3 inhalative, oral and intravenous single doses in healthy male subjects: plasma concentrations and lung deposition
Format: in vivo, human
Conditions: male, human, plasma, inhaled, 1000 μg, healthy male subjects, single 1000 μg inhale + Charcoal Block, N = 16; 2.5 h after dose; read-out: Geometric mean of plasma concentrations
Quantity name: concentration at 2.5 h
Include the unit right after the number.

concentration at 2.5 h for O=C(O)c1ccc(CCN(CCc2ccccc2OCc2ccc(-c3ccc(C(F)(F)F)cc3)cc2Cl)[C@H]2CCCc3nc(C(=O)O)ccc32)cc1 [example 4] is 1.02 ng/mL

* * *

Experiment: E-2.3 inhalative, oral and intravenous single doses in healthy male subjects: plasma concentrations and lung deposition
Assay type: in vivo, human
Details: male, human, plasma, inhaled, 1000 μg, healthy male subjects, single 1000 μg inhale + Charcoal Block, N = 16; 0.5 h after dose; read-out: Geometric mean of plasma concentrations
Procedure: E-2.3 Inhalative, Oral and Intravenous Administration of Single Doses of sGC an Activator in Healthy Male Subjects—Lung Deposition Healthy white male subjects, aged 18 to 45 years with a body mass index (BMI) above/equal 18.5 and below/equal 29.9 kg/m^2 were treated in a clinical phase I study with a single inhaled dose of 1000 μg (nominal dose), a single inhaled dose of 1000 μg (nominal dose)+charcoal block, a single oral dose of 1000 μg and a single infusion over 2 h of 100 μg of example 4. […]
Quantity name: concentration at 0.5 h (ng/mL)
Answer format: numeric, ng/mL implied, no suffix.

concentration at 0.5 h for `O=C(O)c1ccc(CCN(CCc2ccccc2OCc2ccc(-c3ccc(C(F)(F)F)cc3)cc2Cl)[C@H]2CCCc3nc(C(=O)O)ccc32)cc1` is 0.261

* * *

Assay: E-2.3 inhalative, oral and intravenous single doses in healthy male subjects: plasma concentrations and lung deposition
Type: in vivo, human
Details: male, human, plasma, inhaled, 1000 μg, healthy male subjects, single 1000 μg inhale + Charcoal Block, N = 16; 3 h after dose; read-out: Geometric mean of plasma concentrations
Quantity name: concentration at 3 h (ng/mL)
Answer format: numeric, ng/mL implied, no suffix.

concentration at 3 h for `O=C(O)c1ccc(CCN(CCc2ccccc2OCc2ccc(-c3ccc(C(F)(F)F)cc3)cc2Cl)[C@H]2CCCc3nc(C(=O)O)ccc32)cc1` is 0.933

* * *

Experiment: E-2.3 inhalative, oral and intravenous single doses in healthy male subjects: plasma concentrations and lung deposition
Format: in vivo, human
Details: male, human, plasma, inhaled, 1000 μg, healthy male subjects, single 1000 μg inhale, N = 16; 24 h after dose; read-out: Geometric mean of plasma concentrations
Quantity name: concentration at 24 h (ng/mL)
Answer format: numeric, ng/mL implied, no suffix.

concentration at 24 h for O=C(O)c1ccc(CCN(CCc2ccccc2OCc2ccc(-c3ccc(C(F)(F)F)cc3)cc2Cl)[C@H]2CCCc3nc(C(=O)O)ccc32)cc1 [example 4] is 0.106

* * *

Assay: E-2.3 inhalative, oral and intravenous single doses in healthy male subjects: plasma concentrations and lung deposition
Assay type: in vivo, human
Details: male, human, plasma, inhaled, 1000 μg, healthy male subjects, single 1000 μg inhale + Charcoal Block, N = 16; 4 h after dose; read-out: Geometric mean of plasma concentrations
Quantity name: concentration at 4 h (ng/mL)
Answer format: numeric, ng/mL implied, no suffix.

concentration at 4 h for `O=C(O)c1ccc(CCN(CCc2ccccc2OCc2ccc(-c3ccc(C(F)(F)F)cc3)cc2Cl)[C@H]2CCCc3nc(C(=O)O)ccc32)cc1` is 0.812

* * *

Experiment: E-2.3 inhalative, oral and intravenous single doses in healthy male subjects: plasma concentrations and lung deposition
Assay type: in vivo, human
Conditions: male, human, plasma, inhaled, 1000 μg, healthy male subjects, single 1000 μg inhale + Charcoal Block, N = 16; 0.25 h after dose; read-out: Geometric mean of plasma concentrations
Quantity name: concentration at 0.25 h (ng/mL)
Answer format: numeric, ng/mL implied, no suffix.

concentration at 0.25 h for O=C(O)c1ccc(CCN(CCc2ccccc2OCc2ccc(-c3ccc(C(F)(F)F)cc3)cc2Cl)[C@H]2CCCc3nc(C(=O)O)ccc32)cc1 [example 4] is 0.0583

* * *

Assay: E-2.3 inhalative, oral and intravenous single doses in healthy male subjects: plasma concentrations and lung deposition
Format: in vivo, human
Details: male, human, plasma, inhaled, 1000 μg, healthy male subjects, single 1000 μg inhale, N = 16; 8 h after dose; read-out: Geometric mean of plasma concentrations
Quantity name: concentration at 8 h

concentration at 8 h for `O=C(O)c1ccc(CCN(CCc2ccccc2OCc2ccc(-c3ccc(C(F)(F)F)cc3)cc2Cl)[C@H]2CCCc3nc(C(=O)O)ccc32)cc1` is 0.415 ng/mL

* * *

Assay: E-2.3 inhalative, oral and intravenous single doses in healthy male subjects: plasma concentrations and lung deposition
Type: in vivo, human
Settings: male, human, plasma, inhaled, 1000 μg, healthy male subjects, single 1000 μg inhale + Charcoal Block, N = 16; 8 h after dose; read-out: Geometric mean of plasma concentrations
Quantity name: concentration at 8 h
Include the unit right after the number.

concentration at 8 h for O=C(O)c1ccc(CCN(CCc2ccccc2OCc2ccc(-c3ccc(C(F)(F)F)cc3)cc2Cl)[C@H]2CCCc3nc(C(=O)O)ccc32)cc1 [example 4] is 0.373 ng/mL

* * *

Assay: E-2.3 inhalative, oral and intravenous single doses in healthy male subjects: plasma concentrations and lung deposition
Type: in vivo, human
Details: male, human, plasma, inhaled, 1000 μg, healthy male subjects, single 1000 μg inhale, N = 16; 28 h after dose; read-out: Geometric mean of plasma concentrations
Quantity name: concentration at 28 h (ng/mL)
Answer format: numeric, ng/mL implied, no suffix.

concentration at 28 h for `O=C(O)c1ccc(CCN(CCc2ccccc2OCc2ccc(-c3ccc(C(F)(F)F)cc3)cc2Cl)[C@H]2CCCc3nc(C(=O)O)ccc32)cc1` is 0.0793

* * *

Assay: E-2.3 inhalative, oral and intravenous single doses in healthy male subjects: plasma concentrations and lung deposition
Assay type: in vivo, human
Details: male, human, plasma, iv, 100 μg, healthy male subjects, 100 μg IV infusion over 2 h, N = 15; 2.083 h after dose; read-out: Geometric mean of plasma concentrations
Quantity name: concentration at 2.083 h (ng/mL)
Answer format: numeric, ng/mL implied, no suffix.

concentration at 2.083 h for O=C(O)c1ccc(CCN(CCc2ccccc2OCc2ccc(-c3ccc(C(F)(F)F)cc3)cc2Cl)[C@H]2CCCc3nc(C(=O)O)ccc32)cc1 [example 4] is 2.57

* * *

Experiment: E-2.3 inhalative, oral and intravenous single doses in healthy male subjects: plasma concentrations and lung deposition
Format: in vivo, human
Details: male, human, plasma, inhaled, 1000 μg, healthy male subjects, single 1000 μg inhale + Charcoal Block, N = 16; 32 h after dose; read-out: Geometric mean of plasma concentrations
Quantity name: concentration at 32 h (ng/mL)
Answer format: numeric, ng/mL implied, no suffix.

concentration at 32 h for O=C(O)c1ccc(CCN(CCc2ccccc2OCc2ccc(-c3ccc(C(F)(F)F)cc3)cc2Cl)[C@H]2CCCc3nc(C(=O)O)ccc32)cc1 [example 4] is 0.0696

* * *

Assay: E-2.3 inhalative, oral and intravenous single doses in healthy male subjects: plasma concentrations and lung deposition
Assay type: in vivo, human
Details: male, human, plasma, inhaled, 1000 μg, healthy male subjects, single 1000 μg inhale, N = 16; 12 h after dose; read-out: Geometric mean of plasma concentrations
Quantity name: concentration at 12 h (ng/mL)
Answer format: numeric, ng/mL implied, no suffix.

concentration at 12 h for `O=C(O)c1ccc(CCN(CCc2ccccc2OCc2ccc(-c3ccc(C(F)(F)F)cc3)cc2Cl)[C@H]2CCCc3nc(C(=O)O)ccc32)cc1` is 0.25
